Reported IC50 values for a set of compounds
Target: recombinant human MAO-B (Homo sapiens, UniProt P27338)
Construct: purchased BD Biosciences (Bedford, MA, USA)
Sequence (P27338 whole entry): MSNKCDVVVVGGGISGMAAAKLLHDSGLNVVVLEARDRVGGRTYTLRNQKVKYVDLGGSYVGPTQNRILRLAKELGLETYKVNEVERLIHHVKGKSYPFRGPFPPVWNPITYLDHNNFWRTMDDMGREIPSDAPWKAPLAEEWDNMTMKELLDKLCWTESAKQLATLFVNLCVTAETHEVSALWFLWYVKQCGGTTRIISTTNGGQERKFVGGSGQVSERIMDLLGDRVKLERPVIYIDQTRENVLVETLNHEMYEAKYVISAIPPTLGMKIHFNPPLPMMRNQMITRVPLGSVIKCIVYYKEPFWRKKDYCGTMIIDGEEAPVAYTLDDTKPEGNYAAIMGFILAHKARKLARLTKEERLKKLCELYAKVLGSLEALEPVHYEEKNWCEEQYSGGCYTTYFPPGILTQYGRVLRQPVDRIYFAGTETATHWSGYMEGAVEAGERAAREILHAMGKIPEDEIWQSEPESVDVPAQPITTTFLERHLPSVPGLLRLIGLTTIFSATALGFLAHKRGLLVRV
Experiment: In vitro MAO inhibition assay (kynuramine oxidative deamination), IC50
Type: biochemical
Details: rhMAO-B, kynuramine 50 μM, steady-state, mean ± SD
quantity: IC50 (µM)

- compound: "COc1ccc2c(c1)[nH]c1c(C)nccc12 [Harmine]"
  quantity: "IC50"
  experimental_value: 53.1
- compound: "COc1cc(NC(C)CCCN)c2ncccc2c1 (racemic) [(RS)-(±)-Primaquine, Primaquine]"
  quantity: "IC50"
  experimental_value: 107
- compound: "COc1cc(C)c2c(Oc3cccc(C(F)(F)F)c3)c(OC)cc(NC(C)CCCN)c2n1 (centres unmarked) [Tafenoquine]"
  quantity: "IC50"
  experimental_value: 0.95
- compound: "COc1cc(N[C@@H](C)CCCN)c2ncccc2c1 [(S)-(+)-Primaquine]"
  quantity: "IC50"
  experimental_value: 170
- compound: "COc1cc(N[C@H](C)CCCN)c2ncccc2c1 [(R)-(−)-Primaquine]"
  quantity: "IC50"
  experimental_value: 117
